Source: PubChem BioAssay (NCI)

test: NCI Yeast Anticancer Drug Screen. Data for the bub3 strain (AID 167); settings: S. cerevisiae bub3 mutant strain, at 50.0 µM
Compounds without any hit were thinned out: in the full panel of roughly 79,000, 15% have a hit. Activity calls are given as the source filed them. Rule as the data show it: active = growth inhibition above about 70%; inactive = the rest. *1 amine or outer side, *2 acyl side, *3 side chain or, on linkers, in order; H or OH if unused. Where a SMILES comes first, the peptide text is derived from it. Bridges are numbered along the chain shown (N, C = ends). [ ]: non-standard residue; d: D form. The star is where a group is joined. ξ: configuration not given here. Fmoc = O=C(OCC1c2ccccc2-c2ccccc21)*; X9 = O=C(C(CCCCNO[*:3])N[*:1])[*:2]; ξW = NC(Cc1c[nH]c2ccccc12)C(=O)O; ξP = O=C(O)C1CCCN1
Outcome (select one): active, inactive

Problem: Recorded test outcome, item CCC(=O)N(O)C(C)(C)C
Solution: inactive

Problem: Recorded test outcome, item CC(C)(C)OC(=O)NC(CSSCC(NC(=O)OC(C)(C)C)C(=O)O)C(=O)O (centres undefined)
Solution: inactive

Problem: # outcome recorded in this test, key = S=C(Nc1ccc2c(c1)Cc1ccccc1-2)Nc1ccc2c(c1)Cc1ccccc1-2
Solution: inactive

Problem: Any idea what this test logged for C[N+]1(C)CCC[N+](C)(C)CC1 ?
Solution: inactive

Problem: What did this assay record as the result for Cc1ccc(C(=O)Nc2ccc(S(=O)(=O)O)c3cc(S(=O)(=O)O)cc(S(=O)(=O)O)c23)cc1N ?
Solution: inactive

Problem: Per the records of this test, what outcome belongs to CCCCC(C(=O)O)C(=O)O ?
Solution: inactive

Problem: In this assay, the call recorded for CCOC(=O)C(O)(NC(=O)c1ccc(F)cc1)C(F)(F)F (centres undefined) was what?
Solution: inactive

Problem: Fill in: this test's call for O=[N+]([O-])c1cccc(C2=NON(c3ncccn3)C3N=CC=CN23)c1 (centres undefined) is ___
Solution: inactive

Problem: Dear colleague, could you share the recorded outcome for CCOC(=O)C1C(C)=CC(=O)CC1C (centres undefined) when you have a moment?
Solution: inactive

Problem: Assay outcome for COc1cc2c(c(OC)c1OC)-c1ccc(S(C)(=O)=O)c(=O)cc1[C@@H](NC(C)=O)CC2 : what was it?
Solution: inactive

Problem: What outcome does the record of this test show for CCCCCCNC(=O)CCC(NC(=O)c1ccc(N(C)Cc2cnc3nc(N)nc(N)c3n2)cc1)C(=O)NCCCCCC (centres undefined) ?
Solution: inactive

Problem: Hi, sorry to bother you, what did the test record for O=C(O)c1ccc(C(=O)c2ccc(Cl)cc2)cc1 ?
Solution: inactive

Problem: Called result for CCCCCCCCc1cc(CN2CCOCC2)c(O)c(CN2CCOCC2)c1
Solution: inactive

Problem: I'd appreciate the recorded outcome for O=C1C2C3CCC(O3)C2C(=O)N1c1ccccn1 (centres undefined) from this test.
Solution: inactive

Problem: Look up the recorded call for N#C/C(=C\c1ccccn1)c1nc(-c2ccc(Cl)cc2)cs1 in this test.
Solution: inactive

Problem: Recorded test call requested for NC(C(=O)O)C(SCc1ccccc1)c1cccc(O)c1 (centres undefined)
Solution: inactive

Problem: For NC(=O)CNC(=O)C1CCCN1C(=O)C1CCCCNOC(=O)CC[C@@H](NC(=O)OCC2c3ccccc3-c3ccccc32)C(=O)NC(Cc2c[nH]c3ccccc23)C(=O)N1 (some centres undefined) (Fmoc-[dE][ξW][X9][ξP]G-NH2; ester 1-3) , which call appears in the assay record?
Solution: inactive

Problem: Can you look up the reported call for CCc1c2c(cc3c1CC1(C3)Cc3cc4c(c(C(=O)OC)c3C1)CCCC4)CCCC2 (centres undefined) for me?
Solution: inactive

Problem: What was the test verdict on CCOc1ccc(C(C)c2cc3c(cc2OC)OCO3)cc1 (centres undefined) ?
Solution: inactive

Problem: Test call, this compound: CCOC1(OCC)C(=O)N(c2ccc(Cl)c(Cl)c2)C(=O)N1c1ccc(Cl)c(Cl)c1
Solution: inactive

Problem: Hello, I am checking results. What call was entered for O=C(N/C(=C\c1cc(Cl)ccc1Cl)c1nc2ccccc2[nH]1)c1ccccc1 ?
Solution: inactive

Problem: # fetch the recorded call for CCC1CN2CCc3cc(OC)c(OC)cc3C2CC1CCCl (centres undefined) here
Solution: inactive

Problem: What is the recorded call for this compound in the test? O=c1c2ccccc2nc(-c2ccccc2Cl)n1NCC1(O)OCC(O)C(O)C1O (centres undefined)
Solution: inactive

Problem: // return assay outcome for S=C1SCN(C2CCCCCCCCCCC2)CN1C1CCCCCCCCCCC1
Solution: inactive

Problem: Identify the outcome logged in this assay for the compound shown: O=C1NCC2(CCCCCC2)O1
Solution: inactive

Problem: Identify the outcome logged in this assay for the compound shown: CC(=O)/C(=C/n1ccc(=O)[nH]c1=S)C(=O)Nc1ccc(Cl)cc1
Solution: inactive

Problem: For O=C(N/N=C/c1ccccc1Cl)c1ccccc1 , which call appears in the assay record?
Solution: inactive

Problem: Per the records of this test, what outcome belongs to COC(=O)/C(=C\C(=O)c1ccc(Br)cc1)NN=C(c1ccccc1)c1ccccc1 ?
Solution: inactive

Problem: How did this test come out for N#Cc1cccc(-c2ccc(-c3ccccc3)o2)c1 ?
Solution: inactive

Problem: Per the records of this test, what outcome belongs to C=CCOC(OCC=C)C(C)C ?
Solution: inactive

Problem: I would be grateful if you could indicate the recorded call for CCCCC(C)C(C)O (centres undefined) .
Solution: inactive

Problem: Assay result, entry CN1C(C(=O)O)CCC1C(=O)O (centres undefined) — outcome?
Solution: inactive

Problem: Give the logged outcome of this assay for the following compound: O=C(c1ccccc1)c1ccc(N2CCOCC2)cc1
Solution: inactive

Problem: Per the assay record, what outcome was assigned to CN(Cc1ccc(Cl)cc1)C(=O)NCCCCCCNC(=O)N(C)Cc1ccc(Cl)cc1 ?
Solution: active

Problem: I'd appreciate the recorded outcome for CC(C)C(=O)OCc1ccccc1 from this test.
Solution: inactive

Problem: Any idea what this test logged for O=C(OCOC(=O)N1CCOCC1)N1CCOCC1 ?
Solution: inactive

Problem: In this assay, the call recorded for O=C(Cc1cc2ccccc2[nH]c1=O)Nc1ccccc1 was what?
Solution: inactive

Problem: Give the logged outcome of this assay for the following compound: CC1CCCC(=O)CC1 (centres undefined)
Solution: inactive

Problem: What did the test return for Cc1ccc(C2=Nn3c(nc4sc5c(c4c3=O)CCCC5)SC2)cc1 ?
Solution: inactive
